Molecular target: PARP2 (Homo sapiens (Human), UniProt Q9UGN5)
Sequence (Q9UGN5 whole entry): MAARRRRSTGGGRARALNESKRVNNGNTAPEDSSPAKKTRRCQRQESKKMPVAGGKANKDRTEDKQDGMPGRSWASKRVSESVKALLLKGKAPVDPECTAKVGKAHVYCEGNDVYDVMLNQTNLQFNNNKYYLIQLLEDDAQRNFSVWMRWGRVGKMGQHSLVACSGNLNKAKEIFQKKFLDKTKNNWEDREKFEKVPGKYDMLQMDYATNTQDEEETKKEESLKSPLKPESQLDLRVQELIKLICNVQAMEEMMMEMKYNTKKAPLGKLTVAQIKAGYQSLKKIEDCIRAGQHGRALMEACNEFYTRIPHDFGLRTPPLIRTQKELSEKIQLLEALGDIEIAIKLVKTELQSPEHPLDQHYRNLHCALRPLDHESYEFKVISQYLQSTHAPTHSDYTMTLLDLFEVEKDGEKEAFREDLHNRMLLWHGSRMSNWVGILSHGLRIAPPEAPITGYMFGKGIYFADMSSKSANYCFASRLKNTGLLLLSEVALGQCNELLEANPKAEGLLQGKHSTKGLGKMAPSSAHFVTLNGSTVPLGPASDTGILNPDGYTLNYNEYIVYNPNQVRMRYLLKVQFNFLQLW
pIC50: −log10 of the molar value.
observable: pIC50

Worked set:
{"compound": "N#Cc1cccc(O[C@H]2CC[C@H](NC(=O)CCSc3nc4ccccc4c(=O)[nH]3)CC2)c1 [Example 109]", "measurement_target": "PARP2 (Homo sapiens (Human), UniProt Q9UGN5)", "pIC50": "< 3.77"}
{"compound": "Cc1cc(=O)[nH]c(SCCC(=O)N[C@H]2CC[C@H](c3nnc(-c4ccccc4)o3)CC2)n1 [Example 37]", "measurement_target": "PARP2 (Homo sapiens (Human), UniProt Q9UGN5)", "pIC50": "< 3.77"}

IN: Report its pIC50 with PARP2 (Homo sapiens (Human), UniProt Q9UGN5) as the test system: O=C(CCSc1nccc(=O)[nH]1)N[C@H]1CC[C@H](c2nnc(-c3ccccc3)o2)CC1 [Example 123]
OUT: < 3.77
